Data origin, for the record: PubChem BioAssay AID2060503

- Test system: 817829-284-R-J1-PDC complex spheroids, viability
- experiment.description: Anticancer human tumor 817829-284-R-J1-PDC patient-derived colon adenocarcinoma cell line growth inhibition [GQUAD]
- recorded.conditions: second compound 1 µM; first compound 0.0999 µM; stronger effect = lower value
One threshold, 20%, splits the recorded viability, T/C values: lower ones are yes, equal or higher ones are no.

>>> class_assignment("CCc1c2c(nc3ccc(O)cc13)-c1cc3c(c(=O)n1C2)COC(=O)[C@]3(O)CC + Cc1[nH]c2ccc(F)cc2c1-c1nc2c3cccnc3c3ncccc3c2[nH]1")
"yes"
>>> class_assignment("CCc1c2c(nc3ccc(O)cc13)-c1cc3c(c(=O)n1C2)COC(=O)[C@]3(O)CC + CN(C)c1ccc(Nc2c3ccc(NC(=O)CCN4CCCC4)cc3nc3cc(NC(=O)CCN4CCCC4)ccc23)cc1")
"yes"
>>> class_assignment("Cc1[nH]c2ccccc2c1CCNCc1ccc(/C=C/C(=O)NO)cc1 + CN(C)c1ccc(Nc2c3ccc(NC(=O)CCN4CCCC4)cc3nc3cc(NC(=O)CCN4CCCC4)ccc23)cc1")
"yes"
>>> class_assignment("CC[C@@]1(O)C(=O)OCc2c1cc1n(c2=O)Cc2cc3c(CN(C)C)c(O)ccc3nc2-1 + Cc1cnc(CNC(=O)c2c(=O)c3ccc(N4CCCN(C)CC4)nc3n3c2sc2ccccc23)cn1")
"no"
>>> class_assignment("CC[C@@]1(O)C(=O)OCc2c1cc1n(c2=O)Cc2cc3c(CN(C)C)c(O)ccc3nc2-1 + Cc1[nH]c2ccc(F)cc2c1-c1nc2c3cccnc3c3ncccc3c2[nH]1")
"no"
>>> class_assignment("Cn1ncnc1[C@H]1c2n[nH]c(=O)c3cc(F)cc(c23)N[C@@H]1c1ccc(F)cc1 + Cc1[nH]c2ccc(F)cc2c1-c1nc2c3cccnc3c3ncccc3c2[nH]1")
"no"

# check: viability, T/C < 20% for CC[C@@]1(O)C(=O)OCc2c1cc1n(c2=O)Cc2cc3c(CN(C)C)c(O)ccc3nc2-1 + CN(C)c1ccc(Nc2c3ccc(NC(=O)CCN4CCCC4)cc3nc3cc(NC(=O)CCN4CCCC4)ccc23)cc1 no

# check: viability, T/C < 20% for CCc1c2c(nc3ccc(O)cc13)-c1cc3c(c(=O)n1C2)COC(=O)[C@]3(O)CC + Cc1cnc(CNC(=O)c2c(=O)c3ccc(N4CCCN(C)CC4)nc3n3c2sc2ccccc23)cn1 yes

# check: viability, T/C < 20% for Cn1ncnc1[C@H]1c2n[nH]c(=O)c3cc(F)cc(c23)N[C@@H]1c1ccc(F)cc1 + CN(C)c1ccc(Nc2c3ccc(NC(=O)CCN4CCCC4)cc3nc3cc(NC(=O)CCN4CCCC4)ccc23)cc1 no

# check: viability, T/C < 20% for Cn1ncnc1[C@H]1c2n[nH]c(=O)c3cc(F)cc(c23)N[C@@H]1c1ccc(F)cc1 + Cc1cnc(CNC(=O)c2c(=O)c3ccc(N4CCCN(C)CC4)nc3n3c2sc2ccccc23)cn1 no

# check: viability, T/C < 20% for Cc1[nH]c2ccccc2c1CCNCc1ccc(/C=C/C(=O)NO)cc1 + Cc1[nH]c2ccc(F)cc2c1-c1nc2c3cccnc3c3ncccc3c2[nH]1 yes

# check: viability, T/C < 20% for Cc1[nH]c2ccccc2c1CCNCc1ccc(/C=C/C(=O)NO)cc1 + Cc1cnc(CNC(=O)c2c(=O)c3ccc(N4CCCN(C)CC4)nc3n3c2sc2ccccc23)cn1 yes

###

Listed here: items and their measured viability, T/C.
- Test system: 817829-284-R-J1-PDC complex spheroids, viability
- experiment.description: Anticancer human tumor 817829-284-R-J1-PDC cell line growth inhibition [GQUAD];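 further: spheroids exposed to agents for 7 days before readout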;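 on viability, T/C: percent viability relative to DMSO vehicle control taken as 100%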
- recorded.conditions: second compound 10 µM; first compound 0.0316 µM; stronger effect = lower value
The reply should contain only the number, in %.

Please review the following examples before continuing.
>>> test_result("CC[C@@]1(O)C(=O)OCc2c1cc1n(c2=O)Cc2cc3c(CN(C)C)c(O)ccc3nc2-1 + Cc1[nH]c2ccc(F)cc2c1-c1nc2c3cccnc3c3ncccc3c2[nH]1")
7.2
>>> test_result("CCc1c2c(nc3ccc(O)cc13)-c1cc3c(c(=O)n1C2)COC(=O)[C@]3(O)CC + Cc1cnc(CNC(=O)c2c(=O)c3ccc(N4CCCN(C)CC4)nc3n3c2sc2ccccc23)cn1")
0.14
>>> test_result("O=C(c1cc(Cc2n[nH]c(=O)c3ccccc23)ccc1F)N1CCN(C(=O)C2CC2)CC1 + Cc1[nH]c2ccc(F)cc2c1-c1nc2c3cccnc3c3ncccc3c2[nH]1")
45.4
>>> test_result("CC1COCCN1c1cc(-c2ccnn2C)c2ccnc(-c3ccn[nH]3)c2n1 (stereo unspecified) + Cc1[nH]c2ccc(F)cc2c1-c1nc2c3cccnc3c3ncccc3c2[nH]1")
28.2
>>> test_result("Nc1ccn(C2OC(CO)C(O)C2(F)F)c(=O)n1 (stereo unspecified) + CN(C)c1ccc(Nc2c3ccc(NC(=O)CCN4CCCC4)cc3nc3cc(NC(=O)CCN4CCCC4)ccc23)cc1")
10.7

// below: viability, T/C requested for another molecule
Hey, 817829-284-R-J1-PDC complex spheroids, viability data for COc1ncnc(C2CC2)c1-c1ncc2cnn(Cc3ccc(-c4nc(C(F)(F)F)cn4C(C)C)cc3)c2n1 + Cc1cnc(CNC(=O)c2c(=O)c3ccc(N4CCCN(C)CC4)nc3n3c2sc2ccccc23)cn1 : viability, T/C came out at 0.12

###

Listed here: items and their measured IC50.
- Tested on: 817829-284-R-J1-PDC complex spheroids, viability
- experiment.description: Anticancer human tumor 817829-284-R-J1-PDC cell line growth inhibition [GQUAD];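 further: spheroids exposed to agents for 7 days before readout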
- recorded.conditions: curve of first compound; second compound 1 µM
The reply should contain only the number, in nM.

>>> test_result("COc1cccc2c1C(=O)c1c(O)c3c(c(O)c1C2=O)CC(O)(C(=O)CO)CC3OC1CC(N)C(O)C(C)O1 (stereo not given) + Cc1[nH]c2ccc(F)cc2c1-c1nc2c3cccnc3c3ncccc3c2[nH]1")
84.4

// below: IC50 requested for another compound
Recorded IC50 (compound CC(C)(O)C1CCC(Nc2ccc3ncc(-c4cccc(C(F)(F)F)c4)n3n2)CC1 (stereo not given) + Cc1[nH]c2ccc(F)cc2c1-c1nc2c3cccnc3c3ncccc3c2[nH]1 ): 620

###

- Test system: 817829-284-R-J1-PDC complex spheroids, viability
- experiment.description: Anticancer human tumor 817829-284-R-J1-PDC cell line growth inhibition [GQUAD]; active = viability on the fitted dose curve at most 10% of control; inactive = the rest;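 further: spheroids exposed to agents for 7 days before readout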
- recorded.conditions: second compound 3.16 µM; first compound 3.16 µM
Returns: one label drawn from TRUE for active, FALSE for inactive

>>> class_assignment("COc1cccc2c1C(=O)c1c(O)c3c(c(O)c1C2=O)CC(O)(C(=O)CO)CC3OC1CC(N)C(O)C(C)O1 (stereo not drawn) + Cc1cnc(CNC(=O)c2c(=O)c3ccc(N4CCCN(C)CC4)nc3n3c2sc2ccccc23)cn1")
"TRUE"
>>> class_assignment("C#Cc1c(F)ccc2cc(O)cc(-c3ncc4c(N5CC6CCC(C5)N6)nc(OCC56CCCN5CC(F)C6)nc4c3F)c12 (stereo not drawn) + Cc1cnc(CNC(=O)c2c(=O)c3ccc(N4CCCN(C)CC4)nc3n3c2sc2ccccc23)cn1")
"FALSE"

Now consider a different molecule.
// return assay outcome for CCCS(=O)(=O)Nc1ccc(F)c(C(=O)c2c[nH]c3ncc(-c4ccc(Cl)cc4)cc23)c1F + Cc1cnc(CNC(=O)c2c(=O)c3ccc(N4CCCN(C)CC4)nc3n3c2sc2ccccc23)cn1 TRUE

###

Listed here: items and their measured viability, T/C.
- Test system: 817829-284-R-J1-PDC complex spheroids, viability
- experiment.description: Anticancer human tumor 817829-284-R-J1-PDC cell line growth inhibition [GQUAD];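 further: spheroids exposed to agents for 7 days before readout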;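 on viability, T/C: percent viability relative to DMSO vehicle control taken as 100%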
- recorded.conditions: second compound 0.0316 µM; first compound 3.16 µM; stronger effect = lower value
The reply should contain only the number, in %.

Please review the following examples before continuing.
>>> test_result("CC(=O)O[C@H]1C(=O)[C@@]2(C)[C@H]([C@H](OC(=O)c3ccccc3)[C@]3(O)C[C@H](OC(=O)[C@H](O)[C@@H](NC(=O)c4ccccc4)c4ccccc4)C(C)=C1C3(C)C)[C@]1(OC(C)=O)CO[C@@H]1C[C@@H]2O + Cc1[nH]c2ccc(F)cc2c1-c1nc2c3cccnc3c3ncccc3c2[nH]1")
3.69
>>> test_result("C=CCn1c(=O)c2cnc(Nc3ccc(N4CCN(C)CC4)cc3)nc2n1-c1cccc(C(C)(C)O)n1 + CN(C)c1ccc(Nc2c3ccc(NC(=O)CCN4CCCC4)cc3nc3cc(NC(=O)CCN4CCCC4)ccc23)cc1")
6.22
>>> test_result("O=c1[nH]cc(F)c(=O)[nH]1 + Cc1[nH]c2ccc(F)cc2c1-c1nc2c3cccnc3c3ncccc3c2[nH]1")
42.2
>>> test_result("C=CC(=O)N1CCN(c2nc(=O)n(-c3c(C)ccnc3C(C)C)c3nc(-c4c(O)cccc4F)c(F)cc23)C(C)C1 (stereo not given) + CN(C)c1ccc(Nc2c3ccc(NC(=O)CCN4CCCC4)cc3nc3cc(NC(=O)CCN4CCCC4)ccc23)cc1")
83.7
>>> test_result("C#Cc1c(F)ccc2cc(O)cc(-c3ncc4c(N5CC6CCC(C5)N6)nc(OCC56CCCN5CC(F)C6)nc4c3F)c12 (stereo not given) + CN(C)c1ccc(Nc2c3ccc(NC(=O)CCN4CCCC4)cc3nc3cc(NC(=O)CCN4CCCC4)ccc23)cc1")
117

Recorded viability, T/C (compound CC(C)n1c(=O)n(C)c2cnc3cc(F)c(-c4ccc(OCCCN5CCCCC5)nc4)cc3c21 + Cc1cnc(CNC(=O)c2c(=O)c3ccc(N4CCCN(C)CC4)nc3n3c2sc2ccccc23)cn1 ): 26.6

Recorded viability, T/C (compound CC(C)n1c(=O)n(C)c2cnc3cc(F)c(-c4ccc(OCCCN5CCCCC5)nc4)cc3c21 + Cc1[nH]c2ccc(F)cc2c1-c1nc2c3cccnc3c3ncccc3c2[nH]1 ): 104

Recorded viability, T/C (compound COc1ncnc(C2CC2)c1-c1ncc2cnn(Cc3ccc(-c4nc(C(F)(F)F)cn4C(C)C)cc3)c2n1 + Cc1cnc(CNC(=O)c2c(=O)c3ccc(N4CCCN(C)CC4)nc3n3c2sc2ccccc23)cn1 ): 66

Recorded viability, T/C (compound O=C(c1cc(Cc2n[nH]c(=O)c3ccccc23)ccc1F)N1CCN(C(=O)C2CC2)CC1 + CN(C)c1ccc(Nc2c3ccc(NC(=O)CCN4CCCC4)cc3nc3cc(NC(=O)CCN4CCCC4)ccc23)cc1 ): 78.8

Recorded viability, T/C (compound CC1COCCN1c1cc(-c2ccnn2C)c2ccnc(-c3ccn[nH]3)c2n1 (stereo not given) + Cc1cnc(CNC(=O)c2c(=O)c3ccc(N4CCCN(C)CC4)nc3n3c2sc2ccccc23)cn1 ): 6.16
